Provenance of the data: patent US20220017636A1

# Signal/background per record follows
TARGET_OF_ASSAY: T1, MAGEB2 peptide … (SEQ ID NO: 1) complexed with HLA-A*02:01 on the cell surface (human)
T1 construct: whole, on cells; also called pMAGE-HLA; MAGEB2 pMHC
MEASUREMENT_NOTES: flow cytometry, peptide-loaded T2 cells;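 also: binding of single-chain Fv antibody constructs, raised in XenoMouse, to peptide-pulsed T2 cells measured by flow cytometry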
Lab note: record just the number, no unit beside it.

Example results:
| BINDER | Signal/background |
| --- | --- |
| 18093-B11 (scFv, scFv in bacterial lysate, detected with anti-Flag M2) scFv: EVQLLESGGGLVKPGGSLRLSCAASGFTFSDYYMSWIRQAPGKGLEWVSYISKSGSTIYYADSVKGRFTISRDNAKNSLYLQMNSLRAEDTAVYYCATYNYGHFDYWGQGTLVTVSSGGGGSGGGGSGGGGSELVLTQPPSVSVAPGQTARITCGGNNIGSKSVHWYQQKPGQAPVLVVYDDSDRPSGIPERFSGSNSGNTATLTISRVEAGDEADYYCQVWDSSSDHHVVFGGGTKLTVL | 219 |
| 18081-H11 (scFv, scFv in bacterial lysate, detected with anti-Flag M2) scFv: EVQLLESGPALVKPTQTLTLTCTFSGFSFTTHKMGVDWIRQPPGKALEWLALIYWNDDKRYSPSLQSRLTITKDTSKNQVVLTMTNMDPVDTATYYCAYRRYNWNYENWFDPWGQGTLVTVSSGGGGSGGGGSGGGGSELQMTQSPSSLSASVGDRVTITCQASQDISNYLNWYQQKPGKAPKLLIYAASSLQSGVPSRFSGSGSGTDFTLTISSLQPEDFATYYCQQSYTTPFTFGPGTKVEIK | 32 |

API: the following record is the query input.
// Signal/background lookup, binder = 18182-G8 (scFv, scFv in bacterial lysate, detected with anti-Flag M2) scFv: EVQLLESGGGLVKPGGSLRLSCAASGFTFSSYAMNWVRQAPGKGLEWVSAISGSGGGTYYADSGKGRFTISRDNSKNTLYLQMNSLRAEDTAVYYCATGKGVHLNFDYWGQGTLVTVSSGGGGSGGGGSGGGGSELVLTQPPSVSVAPGQTARITCGGNNIGSKSVHWYQQKPGQAPVMVVYDDNDRPSGIPERFSGSNSGNTATLTISRVEAGDEADYYCQVWDSSSDHVVFGGGTKLTVL , result: 289
